Where do these numbers come from? They come from ChEMBL document CHEMBL4219031.

Biological target: von Hippel-Lindau disease tumor suppressor/Elongin-C/Elongin-B/HIF1A (Homo sapiens, UniProt P40337+Q15369+Q15370+Q16665)
Sequence (P40337 whole entry, looked up): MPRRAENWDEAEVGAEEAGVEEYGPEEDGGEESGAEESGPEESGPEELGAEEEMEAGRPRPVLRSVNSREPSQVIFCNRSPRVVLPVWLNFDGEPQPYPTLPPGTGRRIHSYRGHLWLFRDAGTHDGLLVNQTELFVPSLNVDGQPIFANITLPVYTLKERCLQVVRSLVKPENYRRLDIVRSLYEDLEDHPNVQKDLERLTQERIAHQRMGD
Sequence (Q15369 whole entry, looked up): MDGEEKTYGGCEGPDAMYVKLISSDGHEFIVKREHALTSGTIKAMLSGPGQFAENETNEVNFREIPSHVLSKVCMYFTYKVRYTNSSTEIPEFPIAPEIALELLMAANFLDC
Sequence (Q15370 whole entry, looked up): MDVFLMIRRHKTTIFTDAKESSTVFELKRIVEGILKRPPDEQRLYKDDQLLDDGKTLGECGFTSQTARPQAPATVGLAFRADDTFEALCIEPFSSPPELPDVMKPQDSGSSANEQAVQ
Sequence (Q16665 whole entry, looked up): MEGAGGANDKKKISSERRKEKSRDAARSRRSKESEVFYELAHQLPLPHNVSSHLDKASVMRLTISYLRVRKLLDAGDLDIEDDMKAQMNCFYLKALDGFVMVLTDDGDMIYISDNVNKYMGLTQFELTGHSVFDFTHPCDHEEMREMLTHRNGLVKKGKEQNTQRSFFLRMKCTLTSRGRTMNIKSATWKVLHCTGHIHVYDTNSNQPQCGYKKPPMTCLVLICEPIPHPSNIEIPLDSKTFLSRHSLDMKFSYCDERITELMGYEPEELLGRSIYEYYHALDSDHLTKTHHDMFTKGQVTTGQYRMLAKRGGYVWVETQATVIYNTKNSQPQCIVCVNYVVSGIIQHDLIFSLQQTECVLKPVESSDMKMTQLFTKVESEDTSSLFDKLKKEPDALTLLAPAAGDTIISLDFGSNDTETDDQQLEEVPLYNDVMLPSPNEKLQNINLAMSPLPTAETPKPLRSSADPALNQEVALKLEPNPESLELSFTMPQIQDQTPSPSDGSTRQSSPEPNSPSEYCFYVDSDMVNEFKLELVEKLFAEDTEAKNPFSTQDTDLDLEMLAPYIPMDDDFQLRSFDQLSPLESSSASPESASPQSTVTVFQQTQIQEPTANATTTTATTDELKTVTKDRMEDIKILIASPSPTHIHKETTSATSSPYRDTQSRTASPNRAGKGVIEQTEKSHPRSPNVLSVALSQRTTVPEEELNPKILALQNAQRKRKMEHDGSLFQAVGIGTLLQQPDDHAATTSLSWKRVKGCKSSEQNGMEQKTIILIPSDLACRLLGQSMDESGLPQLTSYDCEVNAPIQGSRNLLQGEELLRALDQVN
Assay: Inhibition of His-tagged VHL/elongin B/elongin C (unknown origin) interaction with HIF1alpha preincubated for 10 mins followed by fluorescin labelled HIF1alpha peptide addition measured after 2 hrs by fluorescence polarization assay
Measured IC50 by item
RECORDED_ENDPOINT: IC50 (µM)

[[record]]
compound_string = "CCC[C@H](NC(=O)COCCCOCCCCOCCCOc1ccc(Nc2ncc(Br)c(NCCCN(C)C(=O)C3CCC3)n2)cc1)C(=O)N1C[C@H](O)C[C@H]1C(=O)NCc1ccc(-c2scnc2C)cc1"
observed = 16

[[record]]
compound_string = "Cc1ncsc1-c1ccc(CNC(=O)[C@@H]2C[C@@H](O)CN2C(=O)[C@H](C)NC(=O)COCCCOCCCCOCCCOc2ccc(Nc3ncc(Br)c(NCCCN(C)C(=O)C4CCC4)n3)cc2)cc1"
observed = 25

[[record]]
compound_string = "Cc1ncsc1-c1ccc(CNC(=O)[C@@H]2C[C@@H](O)CN2C(=O)[C@@H](NC(=O)COCCCOCCCCOCCCOc2ccc(Nc3ncc(Br)c(NCCCN(C)C(=O)C4CCC4)n3)cc2)C(C)(C)C)cc1"
observed = 4.9

